Hello, the source for this data is paper PMC11974249, in case you need it.

- Measurement notes: Enzyme kinetics of hydrolysis
- Assay type: in vitro ADME, human
- Particulars: both, human, human liver cytosol, pH 7.4
Examples of compounds with documented CLint scaled follow.
Readout label: CLint scaled (mL/min/kg)

[[record]]
smiles_input = "COC(=O)C1=CCCN(C)C1"
readout_label = "CLint scaled"
display_unit = "mL/min/kg"
value_observed = 11.6

[[record]]
smiles_input = "COC(=O)C1=CCCNC1"
readout_label = "CLint scaled"
display_unit = "mL/min/kg"
value_observed = 0.466


###

- Measurement notes: Enzyme kinetics of hydrolysis
- Assay type: in vitro ADME, human
- Particulars: both, human, human liver cytosol (pooled), pH 7.4
The following compounds are shown together with reported Km at 15 min values.
Readout label: Km at 15 min (mM)

[[record]]
smiles_input = "COC(=O)C1=CCCN(C)C1"
value_observed = 9.11

[[record]]
smiles_input = "COC(=O)C1=CCCNC1"
value_observed = 27.8


###

Listed here: items and their measured percent activity of arecaidine formation compared to control.
- System: arecoline hydrolase activity in HLM
- Measurement notes: Reaction phenotyping with esterase inhibitors in HLM
- Type: biochemical, human
- Particulars: HLM 0.2 mg/ml, arecoline 25 μM, 15 min; loperamide 1 μM, digitonin 20 μM, ethanol 41 mM, BNPP 10 μM, BW284c51 25 μM, ethopropazine 1 μM, vinblastine 10 μM
Readout label: percent activity of arecaidine formation compared to control (%)

[[record]]
compound = "C=CC[N+](C)(C)c1ccc(CCC(=O)CCc2ccc([N+](C)(C)CC=C)cc2)cc1.[Br-].[Br-]"
measurement_target = "arecoline hydrolase activity in HLM"
display_unit = "%"
value_observed = 103

[[record]]
compound = "O=[N+]([O-])c1ccc(OP(=O)(O)Oc2ccc([N+](=O)[O-])cc2)cc1 [BNPP, bis(4-nitrophenyl)-phosphate]"
measurement_target = "arecoline hydrolase activity in HLM"
display_unit = "%"
value_observed = 14.4

[[record]]
compound = "C[C@@H]1CC[C@@]2(OC1)O[C@H]1[C@@H](O)[C@H]3[C@@H]4CC[C@H]5C[C@@H](O[C@@H]6O[C@H](CO)[C@H](O[C@@H]7O[C@H](CO)[C@@H](O)[C@H](O[C@@H]8OC[C@@H](O)[C@H](O)[C@H]8O)[C@H]7O[C@@H]7O[C@H](CO)[C@H](O)[C@H](O[C@@H]8O[C@H](CO)[C@@H](O)[C@H](O)[C@H]8O)[C@H]7O)[C@H](O)[C@H]6O)[C@H](O)C[C@]5(C)[C@H]4CC[C@]3(C)[C@H]1[C@@H]2C"
measurement_target = "arecoline hydrolase activity in HLM"
display_unit = "%"
value_observed = 70

[[record]]
compound = "CC[C@]1(O)C[C@@H]2CN(CCc3c([nH]c4ccccc34)[C@@](C(=O)OC)(c3cc4c(cc3OC)N(C)[C@H]3[C@@](O)(C(=O)OC)[C@H](OC(C)=O)[C@]5(CC)C=CCN6CC[C@]43[C@@H]65)C2)C1"
measurement_target = "arecoline hydrolase activity in HLM"
display_unit = "%"
value_observed = 100

[[record]]
compound = "CCO"
measurement_target = "arecoline hydrolase activity in HLM"
display_unit = "%"
value_observed = 44.6

[[record]]
compound = "CN(C)C(=O)C(CCN1CCC(O)(c2ccc(Cl)cc2)CC1)(c1ccccc1)c1ccccc1 [loperamide]"
measurement_target = "arecoline hydrolase activity in HLM"
display_unit = "%"
value_observed = 100.2

[[record]]
compound = "CCN(CC)C(C)CN1c2ccccc2Sc2ccccc21 (stereo not shown)"
measurement_target = "arecoline hydrolase activity in HLM"
display_unit = "%"
value_observed = 102

